- assay remarks: NCI Yeast Anticancer Drug Screen. Data for the mec2-1 strain (AID 157)
- condition: S. cerevisiae mec2-1 strain, at 50.0 µM (retest, dose inferred, filed as 5.0), stronger effect = higher value
About 79,000 compounds went through this panel and 15% of them were active in at least one assay; those are over-represented in the sample as a whole.
measured parameter: growth inhibition (%)
Record the value in %, omitting the unit from your answer.

>>> value_observed("CCOC(=O)c1csc(/C=C/c2cc(OC)c(OC)c(OC)c2)n1")
1
>>> value_observed("Cc1ccc(O)c(Cc2ccccc2Cl)c1")
99
>>> value_observed("CN(C)CCC1(C2=CCCC2)CC/C(=C\\c2ccccc2Cl)C1=O (centres undefined)")
28
>>> value_observed("O=C(CC1(O)C(=O)Nc2c(Cl)ccc(Cl)c21)c1ccc(Cl)cc1Cl (centres undefined)")
13
>>> value_observed("COc1ccc2c(c1)CCc1c-2ccc(C)c1CCC(=O)O")
100
>>> value_observed("CC(C)c1ccc2nc3ccc(C(=O)NCCN4CCN(c5ccccc5)CC4)cn3c(=O)c2c1")
98
>>> value_observed("CCN(CC)CCOC(=O)Cc1cccc2c(=O)cc(-c3cccs3)oc12")
16
>>> value_observed("O=C1CCSC(=S)N1c1ccc(N=Nc2ccccc2)cc1")
91

For the compound "O=C(Nc1ccc(F)cc1)ON=C1CCCCC1" , what growth inhibition is on record? 100

# iterate: "Nc1ccc2nc3c(nc2c1)C(=O)c1ccccc1-3" 93

Next up: "C/C(=N\NC(=S)N(C)CCN(C)C(=S)N/N=C(\C)c1ccccn1)c1ccccn1" 99

Repeat with "Cc1c2cc[n+](C)cc2c(C)c2c1sc1ccccc12" 98

Proceed to "O=C(/C=C/c1ccccc1)C1(c2ccccc2)CC1" -42

Then what about the compound "Cc1cc(N/N=C/c2cccc3ccccc23)c2cc3c(cc2n1)OCO3" ? 79

---

- assay remarks: NCI Yeast Anticancer Drug Screen. Data for the mec2-1 strain (AID 157)
- condition: S. cerevisiae mec2-1 strain, at 50.0 µM (retest, dose inferred, filed as 5.0), stronger effect = higher value
Compounds without any hit were thinned out: in the full panel of roughly 79,000, 15% have a hit.
measured parameter: growth inhibition (%)
I only need the number, in %, no unit after it.

// below: answered compounds
>>> value_observed("CCN(CC)Cc1c(-c2ccccc2)oc(-c2ccccc2)c1CN(CC)CC")
2
>>> value_observed("COc1cc(/C=C(\\C#N)c2ccc([N+](=O)[O-])cc2)ccc1O")
-3
>>> value_observed("CSc1ccc(/C=N/NC(N)=S)cc1")
-4

Returns the measured growth inhibition for the input compound. Input: "Nc1ncnc2c1c(-c1ccccc1)cn2-c1ccc(Cl)cc1" 10

Now try "O=C1OCc2cccc3cccc1c23" . 43

// repeat for "Nc1c(-c2c(Cl)cccc2Cl)[n+]([O-])c2ccccc2[n+]1[O-]" and report 99

Also "CCCN1C(=O)c2ccccc2C1=O" ? -3

---

- assay remarks: NCI Yeast Anticancer Drug Screen. Data for the sgs1 mgt1 strain (AID 161);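 further: 0% = growth of cultures given vehicle only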
- condition: S. cerevisiae sgs1 mgt1 strain, at 50.0 µM (retest, dose inferred, filed as 5.0), stronger effect = higher value
- Protocol: Growth inhibition of yeast strains with defined genetic alterations is measured as a screen for potential anti-cancer activity. Selected strains with alterations in DNA damage repair or cell cycle control were exposed to compounds and growth inhibition was measured relative to vehicle treated controls. The strain used in this assay is sgs1 mgt1
About 79,000 compounds went through this panel and 15% of them were active in at least one assay; those are over-represented in the sample as a whole.
measured parameter: growth inhibition (%)
Give just the numeric value; % need not be written.

>>> value_observed("O=C(Nc1ccc(F)c([N+](=O)[O-])c1)NC(Cc1ccccc1)c1ccccc1 (configuration not stated)")
92
>>> value_observed("O=C(CCN(Cc1ccccc1)Cc1ccccc1)c1ccc2ccccc2c1")
89
>>> value_observed("CC(CN(CC(=O)O)CC(=O)O)N(CC(=O)O)CC(=O)O.[Cl][Pd][Cl] (configuration not stated)")
92
>>> value_observed("Cc1nc2c(=O)[nH]c3ccc(Cl)cc3c2o1")
90
>>> value_observed("O=C(CNC(=O)c1ccccc1)Oc1c(Cl)c(Cl)c(Cl)c(Cl)c1Cl")
89
>>> value_observed("Cc1ccc2c(c1)C(=O)N(CC[P+](c1ccccc1)(c1ccccc1)c1ccccc1)C2=O")
91

Proceeding to the next compound to report its growth inhibition.
Returns the measured growth inhibition for the input compound. Input: Nc1ccc(C2CCC[C@H]2c2ccc(N)cc2)cc1 (some centres not stated) 90

---

- assay remarks: NCI Yeast Anticancer Drug Screen. Data for the bub3 strain (AID 167)
- condition: S. cerevisiae bub3 mutant strain, at 50.0 µM
Compounds without any hit were thinned out: in the full panel of roughly 79,000, 15% have a hit. Calls of active or inactive are those of the source. Rule as the data show it: active = growth inhibition above about 70%; inactive = the rest.
Answer with one of the outcomes active, inactive

These recorded examples may help you get a feel for the data.
>>> assigned_class("CC(=O)OC1C(C)OC(OC(=O)C2CCC3C(C2)OC2(CC(OC(=O)/C=C/c4ccccc4)C(C)CO2)C32CO2)C(OC2OC(C)C(O)C(OC(C)=O)C2O)C1O (stereo not given)")
"active"
>>> assigned_class("CC1CC(C)C(C)C(CO)C1 (stereo not given)")
"inactive"
>>> assigned_class("CCCCCCCCCCCCCCCCNc1ccn(C2CC(OP(=O)(O)OCC3OC(n4cc(CC)c(=O)[nH]c4=O)CC3O)C(CO)O2)c(=O)n1 (stereo not given)")
"inactive"
>>> assigned_class("CCCCCCCCOc1ccc(/C=C/C(C)=N/NC(N)=NC)cc1OC")
"active"
>>> assigned_class("CC(C)c1ccc(/C=C2\\CSCC3=C2NC(=S)NC3c2ccc(C(C)C)cc2)cc1 (stereo not given)")
"active"

I'd appreciate the recorded outcome for "CC(C)N=C1NS(=O)(=O)c2ccccc21" from this test. inactive

Moving on to Nc1nc(N)c2cc(S(=O)c3ccc4ccccc4c3)ccc2n1 (stereo not given) inactive

Would you mind doing "COc1ccc(OC)c(C(Cc2ccnc3ccccc23)Cc2ccnc3ccccc23)c1" as well? active

Can you check COc1cccc(C2c3cc4c(cc3OC(NNS(=O)(=O)c3ccc(C)cc3)C2C)OCO4)c1O (stereo not given) next? inactive

What about "Cc1cc2nc(CC(=O)c3ccncc3)c(CC(=O)c3ccncc3)nc2cc1C" ? inactive

Moving on to the next molecule: CCCCCCCN(CCCCCCC)CC(O)c1ccc2ccc3ccccc3c2c1 (stereo not given) inactive

Another molecule: COc1cc(C(c2cc3c(cc2O)OCO3)N2CCOCC2)cc(OC)c1OC (stereo not given) inactive

// next record "O=C([O-])c1ccc([I+]c2ccccc2)cc1" inactive

Similarly, "C[Si](C)(c1ccccc1)C1CC(=O)CC(=O)C1" ? inactive

How about "COCCCNC(=O)SC" ? inactive

---

- assay remarks: NCI Yeast Anticancer Drug Screen. Data for the cln2 rad14 strain (AID 165);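 further: 0% = growth equal to vehicle treated cultures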
- condition: S. cerevisiae cln2 rad14 strain, at 50.0 µM (retest, dose inferred, filed as 5.0), stronger effect = higher value
The panel holds about 79,000 compounds, 15% with a hit somewhere; the sample as a whole holds those more often.
measured parameter: growth inhibition (%)
Give the number; % is assumed, so skip it.

Requested read-out: growth inhibition. Entry: "CCCCCCN(CCCCCC)CCC(=O)c1ccc2cc(Br)c3ccccc3c2c1" 87

---

Documented growth inhibition across a set of compounds
- assay remarks: NCI Yeast Anticancer Drug Screen. Data for the mlh1 rad18 strain (AID 175)
- condition: S. cerevisiae mlh1 rad18 strain growth inhibition; at 5.0 µM (retest, dose inferred, filed as 0.5); stronger effect = higher value
The panel holds about 79,000 compounds, 15% with a hit somewhere; the sample as a whole holds those more often. The source made the active and inactive calls. Cut-off read from the data, not from the text of the source: active = growth inhibition above about 70%; inactive = the rest.

A selection of reference data follows.
>>> value_observed("O=C(N=c1sc2ccccc2s1)N=c1sc2ccccc2s1")
"-20% (inactive)"
>>> value_observed("CCCCCCCCCCCCCCCC[N+](C)(CCO)Cc1cnc[nH]1 (configuration not stated)")
"94% (active)"
>>> value_observed("CCCCCC(CO)C(O)(C(F)(F)F)C(F)(F)F (configuration not stated)")
"-26% (inactive)"
>>> value_observed("CC(CN(CC(=O)O)CC(=O)O)N(CC(=O)O)CC(=O)O.[Cl][Pd][Cl] (configuration not stated)")
"30% (inactive)"
>>> value_observed("CN(Cc1cnc2nc(N)nc(N)c2n1)c1ccc(C(=O)NC(CCC(=O)O)C(=O)O)cc1 (configuration not stated)")
"-19% (inactive)"

Would you kindly look at the next entry?
Using the record for "[N-]=[N+]=Nc1ccc(SSCCC(=O)ON2C(=O)CCC2=O)cc1" , report its growth inhibition. 38% (inactive)

---

- assay remarks: NCI Yeast Anticancer Drug Screen. Data for the mlh1 rad18 strain (AID 175)
- condition: S. cerevisiae mlh1 rad18 strain growth inhibition; at 50.0 µM
- Description: Growth inhibition of yeast strains with defined genetic alterations is measured as a screen for potential anti-cancer activity. Selected strains with alterations in DNA damage repair or cell cycle control were exposed to compounds and growth inhibition was measured relative to vehicle treated controls. The strain used in this assay is mlh1 rad18
This is part of a sample that, as a whole, favours compounds with a hit. Of some 79,000 tested, about 15% had one in any assay. The source made the active and inactive calls. Cut-off read from the data, not from the text of the source: active = growth inhibition above about 70%; inactive = the rest.
Field 'call' accepts active, inactive

The following compounds have reported results that may help.
>>> assigned_class("CN(C)CCC(/C=C/c1ccccc1)=N\\Nc1c(F)c(F)c(F)c(F)c1F")
"active"
>>> assigned_class("CSc1ncnc2ncn(C3OC(CO)C(O)C3O)c12 (stereo not drawn)")
"inactive"

# lookup: test call for O=C(O)CC(CCCc1ccccc1)C(=O)O (stereo not drawn) inactive
